target: HSP90 (Homo sapiens, UniProt P07900)
pIC50: −log10 of the molar value.
measurement.type: pIC50

Sample answers from the record:
> print(dat)
                                   molecule  measurement.type  reading
1  CC[C@@H](C)Nc1cc(C(=O)NC2CC3CCC(C2)N3c2ccc(C(=O)C3CC3)cn2)c(OC)cc1C(N)=O (stereo partly shown)             pIC50   > 6.30
2  CCN1CCC[C@@H](NC(=O)c2ccc(N3C4CCC3CC(NC(=O)c3cc(C)c(C(N)=O)cc3C)C4)nc2)C1 (stereo partly shown)             pIC50   > 6.30
3  NC(=O)c1cc(Br)c(C(=O)N[C@H]2C[C@H]3CC[C@@H](C2)N3c2ccc(C(=O)C3CC3)cn2)cc1NCCC(F)(F)F             pIC50   > 6.30

Now, please, on to the next molecule.
Quick check: pIC50 on HSP90 (Homo sapiens, UniProt P07900), item `COc1cccc(C(=O)N[C@H]2C[C@H]3CC[C@@H](C2)N3c2ccc(C(=O)NCCN3CCOCC3)cn2)c1C` ?
5.70 to 6.00

* * *

molecular target: UniProt:P07900
Consider the following compounds and their measured IC50 readings.

Sample answers from the record:
> print(dat)
                                   compound          reading
1  C#CCNC(=O)c1ccc(N2[C@@H]3CC[C@H]2C[C@@H](NC(=O)c2cccc(OC)c2C)C3)nc1  1000 to 2000 nM
2  COc1cccc(C(=O)N[C@H]2C[C@H]3CC[C@@H](C2)N3c2ccc(C(=O)Nc3ccc(C)cc3)cn2)c1C  1000 to 2000 nM
3  COc1ccc(Nc2cc(C(=O)N[C@H]3C[C@H]4CC[C@@H](C3)N4c3ccc(C(C)=O)cn3)ccc2C(N)=O)cc1OCCN(C)C         < 500 nM

Quick check: IC50 on UniProt:P07900, item `COc1ccccc1NC(=O)c1ccc(N2[C@@H]3CC[C@H]2C[C@@H](NC(=O)c2cccc(OC)c2C)C3)nc1` ?
2000 to 10000 nM

Quick check: IC50 on UniProt:P07900, item COc1cccc(C(=O)NC2CC3CCC(C2)N3c2ccc(C(=O)N[C@@H](C)c3ccccc3)cn2)c1C (some centres unmarked) ?
< 500 nM

Quick check: IC50 on UniProt:P07900, item NC(=O)c1ccc(C(=O)NC2CC3CCC(C2)N3c2ccc(C(=O)NC3CCCC3)cn2)cc1N[C@H]1CC[C@H](O)CC1 (some centres unmarked) ?
< 500 nM

Quick check: IC50 on UniProt:P07900, item `COc1cccc(C(=O)N[C@H]2C[C@H]3CC[C@@H](C2)N3c2ccc(C(N)=O)cn2)c1Cl` ?
2000 to 10000 nM

Quick check: IC50 on UniProt:P07900, item COc1ccc([C@@H](C)NC(=O)c2ccc(N3C4CCC3CC(NC(=O)c3cccc(OC)c3C)C4)nc2)cc1 (some centres unmarked) ?
2000 to 10000 nM

* * *

Let's go through some recorded IC50 values for UniProtKB P07900 together.

Sample answers from the record:
> print(dat)
                                   compound        reading
1  CCN1CC(NC(=O)c2ccc(N3[C@@H]4CC[C@H]3C[C@@H](NC(=O)c3cc(C)c(C(N)=O)cc3C)C4)nc2)C1       < 500 nM
2  CCC(CC)Nc1cc(C(=O)NC2CC3CCC(C2)N3c2ccc(C(=O)N[C@@H]3CCN(C(C)C)C3)cn2)c(C)cc1C(N)=O (stereo partly shown)       < 500 nM
3  COc1cccc(C(=O)N[C@H]2C[C@H]3CC[C@@H](C2)N3c2ccc(C(=O)NCc3cccc(N4CCN(C)CC4)c3)cn2)c1C       < 500 nM
4  Cc1cc(C(=O)N[C@H]2C[C@H]3CC[C@@H](C2)N3c2ccc(C(=O)NC3CCN(C(C)C)CC3)cn2)c(C)cc1C(N)=O  500 to 999 nM

IC50 for `COc1cccc(C(=O)N[C@H]2C[C@H]3CC[C@@H](C2)N3c2ccc(C(=O)Nc3ccc4c(c3)OCO4)cn2)c1C` ?
1000 to 2000 nM

IC50 for `CC(C)OCCNc1cc(C(=O)N[C@H]2C[C@H]3CC[C@@H](C2)N3c2ccc(C(=O)C3CC3)cn2)ccc1C(N)=O` ?
< 500 nM

IC50 for `COc1cccc(C(=O)N[C@H]2C[C@H]3CC[C@@H](C2)N3c2ccc(C(=O)NC3CNC3)cn2)c1C` ?
500 to 999 nM

* * *

Let's go through some recorded pIC50 values for UniProt:P07900 together.
pIC50: −log10 of the molar value.

Sample answers from the record:
> print(dat)
                                 smiles.str     test.target  measurement.type       reading
1  COc1cccc(C(=O)N[C@H]2C[C@H]3CC[C@@H](C2)N3c2ccc(C(=O)NCc3ccc(C4CCN(C)CC4)cc3)cn2)c1C  UniProt:P07900             pIC50        > 6.30
2  COc1cc(C(=O)N[C@H]2C[C@H]3CC[C@@H](C2)N3c2ccc(C(=O)C3CC3)cn2)c(C)cc1C(N)=O  UniProt:P07900             pIC50        > 6.30
3  COc1cc(C(=O)N[C@H]2C[C@H]3CC[C@@H](C2)N3c2ccc(C(N)=O)cn2)ccc1CO  UniProt:P07900             pIC50  6.00 to 6.30

Now, please, on to the next molecule.
pIC50 for `COCCNC(=O)c1ccc(N2[C@@H]3CC[C@H]2C[C@@H](NC(=O)c2cccc(OC)c2C)C3)nc1` ?
5.00 to 5.70

* * *

Let's go through some recorded IC50 values for HSP90 (Homo sapiens, UniProt P07900) together.

Sample answers from the record:
> print(dat)
                                   compound        reading
1  CC(=O)c1ccc(N2[C@@H]3CC[C@H]2C[C@@H](NC(=O)c2ccc(C(N)=O)c(NCC(F)(F)C(F)(F)C(F)(F)F)c2)C3)nc1  500 to 999 nM
2  Cc1cc(C(=O)N[C@H]2C[C@H]3CC[C@@H](C2)N3c2ccc(C(=O)NCc3ccccc3)cn2)c(C)cc1C(N)=O       < 500 nM
3  CC(=O)c1ccc(N2[C@@H]3CC[C@H]2C[C@@H](NC(=O)c2ccc(C(N)=O)c(NC4CCOC4)c2)C3)nc1 (stereo partly shown)       < 500 nM

Now, please, on to the next compound.
Quick check: IC50 on HSP90 (Homo sapiens, UniProt P07900), item COc1ccc(C(C)NC(=O)c2ccc(N3[C@@H]4CC[C@H]3C[C@@H](NC(=O)c3cccc(OC)c3C)C4)nc2)cc1OC (stereo partly shown) ?
500 to 999 nM

* * *

target: HSP90 (Homo sapiens)
pIC50: −log10 of the molar value.
measurement.type: pIC50

> print(dat)
                                   molecule       reading
1  COc1ccc(Nc2cc(C(=O)N[C@H]3C[C@H]4CC[C@@H](C3)N4c3ccc(C(=O)NC4CCCC4)cn3)ccc2C(N)=O)cc1OCCN(C)C        > 6.30
2  Cc1c(O)cccc1C(=O)NC1CC2CCC(C1)N2c1ccc(C(=O)NCc2ccccc2)cn1 (stereo not shown)  5.70 to 6.00
3  NC(=O)c1ccc(C(=O)N[C@H]2C[C@H]3CC[C@@H](C2)N3c2ccc(C(=O)C3CC3)cn2)s1  5.70 to 6.00

Quick check: pIC50 on HSP90 (Homo sapiens), item `COc1cccc(C(=O)N[C@H]2C[C@H]3CC[C@@H](C2)N3c2ccc(C(N)=O)cn2)c1CCCCN(C)C` ?
5.70 to 6.00

* * *

target: HSP90 (Homo sapiens)
pIC50: −log10 of the molar value.
Consider the following compounds and their measured pIC50 readings.

Sample answers from the record:
> print(dat)
                                   compound  measurement.type       reading
1  O=C(NCc1cccnc1)c1ccc(N2[C@@H]3CC[C@H]2C[C@@H](NC(=O)c2ccc(CO)cc2)C3)nc1             pIC50        > 6.30
2  COc1cccc(C(=O)NC2CC3CCC(C2)N3c2ccc(C(=O)N[C@@H](C)C(N)=O)cn2)c1C (stereo partly shown)             pIC50  6.00 to 6.30

Quick check: pIC50 on HSP90 (Homo sapiens), item `COc1ccc(NC(=O)c2ccc(N3[C@@H]4CC[C@H]3C[C@@H](NC(=O)c3cccc(OC)c3C)C4)nc2)cc1` ?
6.00 to 6.30

Quick check: pIC50 on HSP90 (Homo sapiens), item `COc1cccc(NC(=O)c2ccc(N3[C@@H]4CC[C@H]3C[C@@H](NC(=O)c3cccc(OC)c3C)C4)nc2)c1` ?
5.00 to 5.70
